Data provenance is paper PMC12005229.

Experiment: plasma pharmacokinetics, LC-MS/MS, noncompartmental analysis
Format: in vivo, human
Conditions: human, plasma, oral, phase Ib, schedule C 6.0/3.0 mg NUT carcinoma only, day 21; read-out: tmax,ss median
readout_type: Tmax
Please don't drop the unit; write it after the number.

Name the recorded Tmax for CNc1nc(-c2nc3ccc(N4CCN(C)CC4)cc3n2Cc2ccccc2)cn2c(C)nnc12 [BI 894999] .
2.05 h

---

Test: plasma pharmacokinetics, LC-MS/MS, noncompartmental analysis
Assay type: in vivo, human
Conditions: human, plasma, oral, 2 mg, phase Ib solid tumors, schedule B 2.0 mg, day 14; read-out: tmax,ss median
readout_type: Tmax (h)
Note: unit h is implicit; provide only the numeric part.

Name the recorded Tmax for CNc1nc(-c2nc3ccc(N4CCN(C)CC4)cc3n2Cc2ccccc2)cn2c(C)nnc12 .
2

---

Assay: plasma pharmacokinetics, LC-MS/MS, noncompartmental analysis
Assay type: in vivo, human
Details: human, plasma, oral, 2.5 mg, phase Ib, schedule B 2.5 mg including NUT carcinoma, day 1; read-out: tmax median
readout_type: Tmax (h)
Note: unit h is implicit; provide only the numeric part.

Name the recorded Tmax for CNc1nc(-c2nc3ccc(N4CCN(C)CC4)cc3n2Cc2ccccc2)cn2c(C)nnc12 .
2.01

---

Assay: plasma pharmacokinetics, LC-MS/MS, noncompartmental analysis
Type: in vivo, human
Conditions: human, plasma, oral, 4 mg, phase Ia DLBCL, schedule C 4.0/2.0 mg, day 1 after loading dose; read-out: AUC0–24 gMean (gCV, %)
readout_type: AUC(0-t) (µM·h)
Note: unit µM·h is implicit; provide only the numeric part.

Name the recorded AUC(0-t) for CNc1nc(-c2nc3ccc(N4CCN(C)CC4)cc3n2Cc2ccccc2)cn2c(C)nnc12 [BI 894999] .
0.138

---

Experiment: plasma pharmacokinetics, LC-MS/MS, noncompartmental analysis
Type: in vivo, human
Conditions: human, plasma, oral; phase Ia DLBCL, schedule B 2.0 mg, day 14; read-out: Cmax,ss gMean (gCV, %)
readout_type: Cmax

Name the recorded Cmax for CNc1nc(-c2nc3ccc(N4CCN(C)CC4)cc3n2Cc2ccccc2)cn2c(C)nnc12 .
7.67 nM

---

Test: plasma pharmacokinetics, LC-MS/MS, noncompartmental analysis
Assay type: in vivo, human
Conditions: human, plasma, oral, phase Ib, schedule C 6.0/3.0 mg NUT carcinoma only, day 21; read-out: AUC0–24,ss gMean (gCV, %)
readout_type: AUC(0-t) (nM·h)
Note: unit nM·h is implicit; provide only the numeric part.

Name the recorded AUC(0-t) for CNc1nc(-c2nc3ccc(N4CCN(C)CC4)cc3n2Cc2ccccc2)cn2c(C)nnc12 .
149

---

Assay: plasma pharmacokinetics, LC-MS/MS, noncompartmental analysis
Assay type: in vivo, human
Conditions: human, plasma, oral, 2 mg, phase Ia DLBCL, schedule B 2.0 mg, day 14; read-out: AUC0–24,ss gMean (gCV, %)
readout_type: AUC(0-t) (µM·h)
Note: unit µM·h is implicit; provide only the numeric part.

Name the recorded AUC(0-t) for CNc1nc(-c2nc3ccc(N4CCN(C)CC4)cc3n2Cc2ccccc2)cn2c(C)nnc12 [BI 894999] .
0.12
